- target desc: recombinant human cIAP1-BIR3 protein (Homo sapiens, UniProt Q13490)
- Construct: recombinant human cIAP1-BIR3 protein; purchased Reaction biology APT-11-370
- Sequence (Q13490 253-363 limits assumed): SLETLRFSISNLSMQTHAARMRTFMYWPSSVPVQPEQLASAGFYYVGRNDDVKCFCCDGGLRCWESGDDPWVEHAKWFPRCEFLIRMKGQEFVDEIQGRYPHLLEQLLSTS
- test protocol: Recombinant human c-IAP1-BIR3 biochemical assay (HTRF, peptide displacement)
- study conditions: 1.2 nM cIAP1-BIR3, 3 nM AbuRPF-K(5-Fam)-NH2 peptide, read-out: Protein binding IC50 (nM) c-IAP1
Param label: returns TRUE when IC50 < 0.2 nM, returns FALSE otherwise, including exact equality.

>>> category_label("C[C@@H]1CN(CC(=O)N2c3cc(Cc4ccc(F)cc4)c(C(=O)NCC4CCN(C)CC4)nc3OC[C@@H]2C)[C@@H](CN2[C@H](C)COC[C@H]2C)CN1")
"TRUE"
>>> category_label("CCOc1nc2c(cc1Cc1ccc(F)cc1)N(C(=O)CN1C[C@@H](C)NC[C@@H]1CN1[C@H](C)COC[C@H]1C)[C@@H](C)CO2")
"TRUE"
>>> category_label("CCNC(=O)c1nc2c(cc1Cc1ccc(F)cc1)N(C(=O)CN1C[C@@H](C)NC[C@@H]1CN1[C@H](C)COC[C@H]1C)[C@@H](C)CO2")
"FALSE"
>>> category_label("Cc1nc2c(cc1Cc1ccc(F)cc1)N(C(=O)CN1C[C@@H](C)NC[C@@H]1CN1CCOC[C@H]1C)CCO2")
"FALSE"
>>> category_label("CC(C)[C@H]1COc2ncc(Cc3ccc(F)cc3)cc2N1C(=O)CN1C[C@@H](C)NC[C@@H]1CN1[C@H](C)COC[C@H]1C")
"FALSE"
>>> category_label("C[C@@H]1CN(CC(=O)N2c3cc(Cc4ccc(F)cc4)c(C(=O)NC4CCOCC4)nc3OC[C@@H]2C)[C@@H](CN2[C@H](C)COC[C@H]2C)CN1")
"TRUE"
>>> category_label("C[C@@H]1CN(CC(=O)N2CCOc3ncc(Cc4ccc(F)cc4)cc32)[C@@H](CN2C(=O)OC[C@H]2C(F)F)CN1")
"FALSE"
>>> category_label("COC[C@H]1COc2ncc(Cc3ccc(F)cc3)cc2N1C(=O)CN1C[C@@H](C)NC[C@@H]1CN1CCOC[C@H]1C")
"FALSE"
>>> category_label("CCOc1nc2c(cc1Cc1ccc(F)cc1)N(C(=O)CN1C[C@@H](C)NC[C@@H]1CN1CCOC[C@H]1C)CCO2")
"FALSE"
>>> category_label("CC(C)C(=O)Nc1nc2c(cc1Cc1ccc(F)cc1)N(C(=O)CN1C[C@@H](C)NC[C@@H]1CN1[C@H](C)COC[C@H]1C)[C@@H](C)CO2")
"TRUE"

###

# IC50 listing for each entry below
- target desc: recombinant human cIAP1-BIR3 protein (Homo sapiens, UniProt Q13490)
- Construct: recombinant human cIAP1-BIR3 protein; purchased Reaction biology APT-11-370
- test protocol: Recombinant human c-IAP1-BIR3 biochemical assay (HTRF, peptide displacement)
- study conditions: 1.2 nM cIAP1-BIR3, 3 nM AbuRPF-K(5-Fam)-NH2 peptide, read-out: Protein binding IC50 (nM) c-IAP1
measurement type: IC50

>>> meas_value("C[C@@H]1CN(CC(=O)N2c3cc(Cc4ccc(F)cc4)cnc3OC[C@@H]2COCc2ccccc2)[C@@H](CN2[C@H](C)COC[C@H]2C)CN1")
"0.13 nM"
>>> meas_value("CCC(=O)Nc1nc2c(cc1Cc1ccc(F)cc1)N(C(=O)CN1C[C@@H](C)NC[C@@H]1CN1[C@H](C)COC[C@H]1C)[C@@H](C)CO2")
"0.15 nM"
>>> meas_value("CC(C)OC[C@@H]1COCCN1C[C@H]1CN[C@H](C)CN1CC(=O)N1c2cc(Cc3ccc(F)cc3)c(CO)nc2OC[C@@H]1C")
"0.26 nM"

Cited source for all entries: patent US12583866B2
